# assay info: Effect of organic solvent ratio variation on solubility
# Type: physicochemical
# assay conditions: propylene glycol/ethanol/normal saline mixture, aqueous with cosolvent or surfactant or cyclodextrin, PG 40 / EtOH 9 / normal saline 51 (%, w/v)
experimental endpoint: solubility

- compound: "C=C/C=C\\C(C)[C@H](OC(N)=O)[C@@H](C)[C@H](O)[C@@H](C)C/C(C)=C\\C(C)C(O)[C@@H](C)/C=C\\[C@@H](O)C[C@@H]1OC(=O)[C@H](C)C(O)C1C (single isomer, unassigned; (+)) [discodermolide, (+)-Discodermolide]"
  endpoint result: "770 µg/mL"

====

# assay info: Solubility of discodermolide in various solvent systems measured by HPLC
# Type: physicochemical
# assay conditions: 20% propylene glycol/80% normal saline, aqueous with cosolvent or surfactant or cyclodextrin; 20% PG/80% normal saline
experimental endpoint: solubility (µg/mL)

- compound: "C=C/C=C\\C(C)[C@H](OC(N)=O)[C@@H](C)[C@H](O)[C@@H](C)C/C(C)=C\\C(C)C(O)[C@@H](C)/C=C\\[C@@H](O)C[C@@H]1OC(=O)[C@H](C)C(O)C1C (single isomer, unassigned; (+)) [discodermolide, (+)-Discodermolide]"
  experimental endpoint: "solubility"
  endpoint result: 130

====

# assay info: Effect of organic solvent ratio variation on solubility
# Assay type: physicochemical
# assay conditions: propylene glycol/ethanol/normal saline mixture, aqueous with cosolvent or surfactant or cyclodextrin, PG 38 / EtOH 9.5 / normal saline 52.5 (%, w/v)
experimental endpoint: solubility (µg/mL)

- compound: "C=C/C=C\\C(C)[C@H](OC(N)=O)[C@@H](C)[C@H](O)[C@@H](C)C/C(C)=C\\C(C)C(O)[C@@H](C)/C=C\\[C@@H](O)C[C@@H]1OC(=O)[C@H](C)C(O)C1C (single isomer, unassigned; (+)) [discodermolide, (+)-Discodermolide]"
  experimental endpoint: "solubility"
  endpoint result: 700

====

# assay info: Solubility of discodermolide in various solvent systems measured by HPLC
# Assay type: physicochemical
# assay conditions: 60% propylene glycol/40% normal saline, aqueous with cosolvent or surfactant or cyclodextrin; 60% PG/40% normal saline
experimental endpoint: solubility (µg/mL)

- compound: "C=C/C=C\\C(C)[C@H](OC(N)=O)[C@@H](C)[C@H](O)[C@@H](C)C/C(C)=C\\C(C)C(O)[C@@H](C)/C=C\\[C@@H](O)C[C@@H]1OC(=O)[C@H](C)C(O)C1C (single isomer, unassigned; (+)) [discodermolide, (+)-Discodermolide]"
  experimental endpoint: "solubility"
  unit abbrev: "µg/mL"
  endpoint result: 530

====

# assay info: Solubility of discodermolide in various solvent systems measured by HPLC
# Format: physicochemical
# assay conditions: 100% PEG 300, organic solvent or mixture

- compound: "C=C/C=C\\C(C)[C@H](OC(N)=O)[C@@H](C)[C@H](O)[C@@H](C)C/C(C)=C\\C(C)C(O)[C@@H](C)/C=C\\[C@@H](O)C[C@@H]1OC(=O)[C@H](C)C(O)C1C (single isomer, unassigned; (+)) [discodermolide, (+)-Discodermolide]"
  solubility: "> 20 mg/mL"

====

# assay info: Effect of organic solvent ratio variation on solubility
# Format: physicochemical
# assay conditions: propylene glycol/ethanol/normal saline mixture, aqueous with cosolvent or surfactant or cyclodextrin, PG 40 / EtOH 9.6 / normal saline 50.4 (%, w/v)

- compound: "C=C/C=C\\C(C)[C@H](OC(N)=O)[C@@H](C)[C@H](O)[C@@H](C)C/C(C)=C\\C(C)C(O)[C@@H](C)/C=C\\[C@@H](O)C[C@@H]1OC(=O)[C@H](C)C(O)C1C (single isomer, unassigned; (+)) [discodermolide, (+)-Discodermolide]"
  unit abbrev: "µg/mL"
  solubility: 870
